The entries that follow carry Ki values tested on Substance-K receptor (Homo sapiens, UniProt P21452), drawn from several published reports.
assay_metric: Ki (nM)

{"columns": ["compound", "Ki (nM)"],
 "data": [
  ["CN(C(=O)c1cc(C(F)(F)F)cc(C(F)(F)F)c1)[C@@H](/C=C/C(=O)N[C@@H]1CCCCNC1=O)Cc1ccc(Cl)c(Cl)c1", 9.55],
  ["O=C(NC1(C(=O)N[C@@H](CCCN2CCN(CC3CCOCC3)CC2)Cc2ccccc2)CCCC1)c1ccc(-c2ccccc2)cc1", 0.501],
  ["Cc1ccc2cc(C(=O)NC3(C(=O)N[C@@H](CCCN4CCC(N5CCOCC5)CC4)Cc4ccccc4)CCCC3)sc2c1", 0.501],
  ["CC(C)NC(=O)c1c(CN2CCN(C(C)C)CC2)c(-c2ccccc2)nc2ccccc12", 811]
]}

A = CC(C)[C@@H]1NC(=O)CNC(=O)[C@@H]2CCCN2C(=O)[C@@H](Cc2c[nH]c3ccccc23)NC(=O)CNC(=O)[C@H](Cc2ccc(OC(C)(C)C)cc2)NC(=O)CNC1=O
B = NCCOCCOCCNC(=O)[C@H](Cc1ccccc1)NC(=O)C1(NC(=O)c2cc3ccccc3s2)CCCC1
Request: For the two items A and B , which reports the higher Ki value? Returns: label corresponding to the selected item.
Result: A
(A: 27000 nM, B: 50.1 nM)

A = O=C1CCC(=O)N[C@@H](Cc2c[nH]c3ccccc23)C(=O)N[C@@H](Cc2ccccc2)C(=O)NC[C@H](Cc2ccccc2)N1
B = CCN(CC)CCCNC(=O)[C@H](Cc1ccccc1)NC(=O)C1(NC(=O)c2cc3ccccc3s2)CCCCC1
Request: For the two items A and B , which reports the higher Ki value? Returns: label corresponding to the selected item.
Result: A
(A: 1260 nM, B: 39.8 nM)

----------
The entries that follow carry pKi values tested on the protein given by its sequence, drawn from several published reports.
Sequence of the target: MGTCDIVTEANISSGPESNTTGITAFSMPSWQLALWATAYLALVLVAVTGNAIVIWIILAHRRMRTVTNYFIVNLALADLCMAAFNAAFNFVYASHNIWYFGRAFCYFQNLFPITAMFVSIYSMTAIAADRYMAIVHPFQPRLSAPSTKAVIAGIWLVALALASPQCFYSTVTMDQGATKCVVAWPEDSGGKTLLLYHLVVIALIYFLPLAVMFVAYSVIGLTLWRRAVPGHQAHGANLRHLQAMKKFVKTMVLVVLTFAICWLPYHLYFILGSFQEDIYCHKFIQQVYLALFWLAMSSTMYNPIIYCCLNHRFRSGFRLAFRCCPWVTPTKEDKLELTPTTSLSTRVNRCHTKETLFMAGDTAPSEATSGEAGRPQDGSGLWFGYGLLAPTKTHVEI
pKi: −log10 of the molar value.
assay_metric: pKi

These solved cases illustrate the format of a correct answer.
{"columns": ["molecule", "pKi"],
 "data": [
  ["O=C(N[C@@H](Cc1ccccc1)C(=O)NCCCN1CCOCC1)C(c1ccccc1)c1ccccc1", 5.70],
  ["CCOCCCNC(=O)CN1CCN(CCC(/C(COCc2cc(C(F)(F)F)cc(C(F)(F)F)c2)=N/OC)c2ccc(Cl)c(Cl)c2)CC1 (stereo not given)", 6.42],
  ["CO/N=C(\\COCc1cc(C(F)(F)F)cc(C(F)(F)F)c1)C(CCN1CCC(N2CCC(OC(=O)NC(C)C)C2)CC1)c1ccc(Cl)c(Cl)c1 (stereo not given)", 7.17],
  ["CO/N=C(\\COCc1cc(C(F)(F)F)cc(C(F)(F)F)c1)C(CCN1CCN(CC(=O)N2CCC(NC(C)=O)C2)CC1)c1ccc(Cl)c(Cl)c1 (stereo not given)", 7.32],
  ["O=C(Nc1cccc(Oc2ccccc2)c1)N[C@@H](Cc1ccccc1)C(=O)NCCCN1CCOCC1", 6.70]
]}

P = O=C(NCCc1c[nH]c2ccccc12)c1nccnc1C(=O)N(CCCN1CCOCC1)CCc1c[nH]c2ccccc12
Q = CCOC(=O)C1=C(C)OC2OC(CO)C(OCc3ccccc3)C(OCc3ccccc3)C2S1 (stereo not given)
Request: Field: lower recorded pKi (choose P or Q ) Returns: label corresponding to the selected item.
Result: Q
(Q: 5.40, P: 6.30)

1 = NCCCCCNC(=O)[C@H](Cc1ccccc1)NC(=O)C1(NC(=O)c2cc3ccccc3s2)CCCCC1
2 = O=C1CCC(=O)N[C@H](Cc2ccccc2)CNC(=O)[C@H](Cc2ccccc2)NC(=O)C(Cc2c[nH]c3ccccc23)N1 (single isomer, unassigned)
Request: Field: lower recorded pKi (choose 1 or 2 ) Returns: label corresponding to the selected item.
Result: 2

1 = NCCCCCCNC(=O)C(Cc1ccccc1)NC(=O)C1(NC(=O)c2cc3ccccc3s2)CCCCC1 (stereo not given)
2 = CO/N=C(\COCc1cc(C(F)(F)F)cc(C(F)(F)F)c1)C(CCN1CCC(CN2CCCC(CC(O)CO)C2=O)CC1)c1ccc(Cl)c(Cl)c1 (stereo not given)
Request: For the two items 1 and 2 , which reports the higher pKi value? Returns: label corresponding to the selected item.
Result: 2
